study system: EGFR double mutation L858R/T790M (H1975 cells) (Homo sapiens (Human), UniProt P00533, L858R/T790M)
test protocol: Phospho-EGFR signaling (immunoblotting, 1 hr) in H1975 cells
Type: cell-based
conditions: signaling EC50 WT (A431) / H1975
In this section, each of the compounds is paired with its reported Ratio WT/mutant (H1975).
measurement label: Ratio WT/mutant (H1975)

>>> df
                             chemical_string  reported_result
 0  C=CC(=O)Nc1cccc(Nc2nc(Nc3ccc(N4CCN(C(=O)C(C)(C)C)CC4)cc3OC)ncc2C(F)(F)F)c1              >35
 1  C=CC(=O)Nc1cccc(Oc2nc(Nc3ccc(N4CCOCC4)cc3OC)ncc2Cl)c1              >30
 2  C=CC(=O)Nc1cccc(Nc2nc(Nc3ccc(N4CCN(C(C)=O)CC4)cc3OC(F)(F)F)ncc2C(F)(F)F)c1              >50
 3  C=CC(=O)Nc1cccc(Nc2nc(Nc3ccc(N4CCCN(C(C)=O)CC4)cc3OC)ncc2C(F)(F)F)c1               >5
 4  C=CC(=O)Nc1cccc(Oc2nc(Nc3ccc(N4CCOCC4)cc3OC)ncc2C(F)(F)F)c1              >50
 5  C=CC(=O)Nc1cccc(Oc2nc(Nc3ccc(N4CCN(C(=O)OC(C)(C)C)CC4)cc3OC)ncc2Cl)c1              >10
 6  C=CC(=O)Nc1cccc(Oc2nc(Nc3ccc(N4CCN(S(C)(=O)=O)CC4)cc3OC)ncc2C(F)(F)F)c1              >35
 7  C=CC(=O)Nc1cccc(Oc2nc(Nc3ccc(N4CCN(S(C)(=O)=O)CC4)cc3OC)ncc2Cl)c1              >40
 8  C=CC(=O)Nc1cccc(Nc2nc(Nc3ccc(N4CCCN(C(=O)OC(C)(C)C)CC4)cc3OC)ncc2C(F)(F)F)c1               >5
 9  C=CC(=O)Nc1cccc(Nc2nc(Nc3ccc(N4CCOCC4)cc3OC(F)F)ncc2C(F)(F)F)c1              >15
10  C=CC(=O)Nc1cccc(Nc2nc(Nc3ccc(N4CCN(C(C)=O)CC4)cc3OC)ncc2Cl)c1               >1
11  C=CC(=O)Nc1cccc(Nc2nc(Nc3ccc(N4CCN(C(=O)CO)CC4)cc3OC)ncc2Cl)c1               >1
12  C=CC(=O)Nc1cccc(Oc2nc(Nc3ccc(N4CCN(C(=O)CO)CC4)cc3OC)ncc2Cl)c1               >5
13  C=CC(=O)Nc1cccc(Nc2nc(Nc3ccc(N4CCS(=O)(=O)CC4)cc3OC)ncc2C(F)(F)F)c1              >20
14  C=CC(=O)Nc1cccc(Oc2nc(Nc3ccc(N4CCN(C(=O)NC)CC4)cc3OC)ncc2C(F)(F)F)c1               >5

Origin of values: patent US10434101B2
